# test protocol: folding stability dG unfold from trypsin proteolysis; higher = more stable
value kind: folding stability dG unfold (kcal/mol)
Kindly answer with a numeric value in kcal/mol, unit omitted.

Query :: Provide one value: measured folding stability dG unfold of SAGGSAGGSPPNWKTIPITFWVDPGDVEEFANILRDLGLEIEDVEVEPNPDGHVWVTITIVIPSAGGSAGGS [r12_905_TrROS]
Result :: 2.57

Query :: Provide one value: measured folding stability dG unfold of SAGGSAGGSAGGPLKLKVKLKLEFEVKDENGKTSKVELEVELEVELPEIVLDKNGKLLLSAGGSAGGSAGGS [r10_168_TrROS_Hall]
Result :: 2.42

Query :: Provide one value: measured folding stability dG unfold of SAGGKKIKVEVKIEIKIEKNPDGSYTIRIKITVKVTNENGEKFEVKVELEITLSEEELEKLKKLLEELSAGG [r13_412_TrROS_Hall]
Result :: 3.07

Query :: Provide one value: measured folding stability dG unfold of SAPPKTRTREIEIRFDDYYVRIKITWTKDGNLKLDIEFQGPNPVMREQIKDFLEELNPDFEITDIEVYRSAG [r14_611_TrROS]
Result :: 2.13

Query :: Provide one value: measured folding stability dG unfold of SELEDMTPEQLRERIRELLEELREERPGEEVEITIEELLERLPGMSREQLAEILGLTEEELENRTITIRASA [r9_525_TrROS_Hall]
Result :: 2.08

Query :: Provide one value: measured folding stability dG unfold of SAGGFKEIKKKLGVKKEDKVILDLEVNFGKKPKFFKVEFEVDKLEEIVKELGIPKENLKIVKAVVIKESAGG [r13_681_TrMRF]
Result :: -0.523

Query :: Provide one value: measured folding stability dG unfold of SNLMIHFENPDNGVRVMIQINPEHGRIKLSVMYPNGKPVAEQTIEVDPNKIRLRFKVGGRKFEIEIEIPESA [r9_385_TrROS]
Result :: 4.32

Query :: Provide one value: measured folding stability dG unfold of SAGGSAGGSKKAEELAKKLGLEVEIVKVEKKKDGSEVVIVKIKNKDGSELTLVVKDGKVELFPSAGGSAGGS [r12_279_TrROS_Hall]
Result :: 1.79

Query :: Provide one value: measured folding stability dG unfold of SAGGSAGGSRLDATRALLDKLPPGSVTVTVYVNGKPVTFRFGSREEIEEAIEANPDVEVEIEPASAGGSAGG [r6_421_TrMRF]
Result :: 0.93

Query :: Provide one value: measured folding stability dG unfold of SAGGKTIVIKVKTKEQAKALAEELAKKLKDAGYTVTVTYDEETGVVTVTVTVKVNGKTKKITLVLELPSAGG [r13_641_TrROS_Hall]
Result :: 3.51

###

# test protocol: folding stability dG unfold from trypsin proteolysis; higher = more stable
value kind: folding stability dG unfold (kcal/mol)
Kindly answer with a numeric value in kcal/mol, unit omitted.

Query :: Provide one value: measured folding stability dG unfold of SAGGNIKIKLKGKIYDLNSNKYYDVEIEYDPKTGKAIITTPKGLKFEINPKEKKAEIPSKNYALEIGSAGGS [r16_743_TrMRF]
Result :: 1.21

Query :: Provide one value: measured folding stability dG unfold of SAGGSAMITVKLEGKPVTVEILSREPKGRLVKAQAVVHRPDDGTEKTVSGLLSEEEIEKAIEEALASAGGSA [r15_944_JUSTAS]
Result :: -0.917

Query :: Provide one value: measured folding stability dG unfold of SAGGKEIYVVRIEVYYPSNGKVEEKEYVIEATPEEAEELAKKIAEAFKEEAGEEVEVLRVEIKVYDLSAGGS [r16_140_TrMRF]
Result :: 3.82

Query :: Provide one value: measured folding stability dG unfold of SAGGSAGGMVIEGRIKIVSPDGGEKEIPVVLFIPESFPDANLEELAEAIAKEILPPGYKADFEGSAGGSAGG [r6_821_TrMRF]
Result :: 0.601

Query :: Provide one value: measured folding stability dG unfold of SAGGSAGGSAGKTLVFKTKEEALKAIEEEAKKKGYKKVKIEITEVGPDGKVKVKVKIEKKSAGGSAGGSAGG [r17_430_TrROS_Hall]
Result :: 0.763

Query :: Provide one value: measured folding stability dG unfold of SAGGMMIVIRIPNKPVEFEINGWKIEYNPDEGTIIIPFPPEMLDQLEKLPGLEGIKDIEIIPPGELKSAGGS [r8_493_TrROS]
Result :: 1.22

Query :: Provide one value: measured folding stability dG unfold of SAGGSAAKITEVEVEELEDGEVLIRVKVKPEDIDALLELAKKLPEENIELVEKREDGYYVLRIKRPSAGGSA [r15_386_TrROS_Hall]
Result :: 1.53

Query :: Provide one value: measured folding stability dG unfold of SAGGSAGGSAGSKTIEVVIPVKPNELTPEQAENLIKPFFPDAKIEVTPEGNYLVVKVEVSSAGGSAGGSAGG [r11_7_TrMRF]
Result :: 0.475

Query :: Provide one value: measured folding stability dG unfold of SAGGSAKPDLVRTGPLLLPTAVVLPSVHFADPDVSVSLFRTPNGPPYLALAFIDPETGEPHIVLFPSAGGSA [r15_84_TrMRF]
Result :: 0.934

###

Task for the reader: assign each of the following sequences its reported folding stability dG unfold.
# test protocol: folding stability dG unfold (combined trypsin and chymotrypsin); higher = more stable
Kindly answer with a numeric value in kcal/mol, unit omitted.

Query :: Provide one value: measured folding stability dG unfold of SEDTVTIEVRAFPVKDKNGKPRFYVSIEFGNGPVSYPIPGLPEGMKEGETFTIEIPPENIKKVDISIMPYSA [r9_769_TrROS]
Result :: 1.97

Query :: Provide one value: measured folding stability dG unfold of SMTLTIDLDPSVPYLVRIHFVNEDGEPYEADALTTRTPDGTAFVDIALPDDSIPPGADIKILSVEVIPLDSA [r9_359_TrMRF]
Result :: 1.96

Query :: Provide one value: measured folding stability dG unfold of SPEIKIEVFKNEDGEEIFIKIEVPPGWRIRIIYNGKEIEEIEVDGYRIRFEEVDGKLRIEVEPLPPGEKPSA [r9_221_TrROS_Hall]
Result :: 5.2

Query :: Provide one value: measured folding stability dG unfold of SAGGSAGGMYTKTYNVPPDWKVTATATAPGGATVTDSSAPNGNFTLTFPASLADATTFTVTVTPSAGGSAGG [r6_237_JUSTAS]
Result :: 0.285

Query :: Provide one value: measured folding stability dG unfold of SAGDISPSDPVTVRVEVEKDPNSKSTLVRVDEETPTGRRLERRIPADGPVVVTEREPASGATRVTVEPASAG [r5_55_JUSTAS]
Result :: -0.563

Query :: Provide one value: measured folding stability dG unfold of SAVELPPDASITAVTVDPSGSRTVEVEVKTTTAYVYDPATGTTTTVPPGVRTVVTLPADVPVTVSFTSPSAG [r14_385_JUSTAS]
Result :: 0.413

Query :: Provide one value: measured folding stability dG unfold of SAGGSAEEARALAEQVREEVRAAHAPDEVVTVTVELPDGTRVEVTFDAAGEVLSVTIYRPDGTPELSAGGSA [r2_84_JUSTAS]
Result :: 1.88

###

# test protocol: folding stability dG unfold (combined trypsin and chymotrypsin); higher = more stable
Response key: criterion met means folding stability dG unfold >= 3 kcal/mol; criterion not met means folding stability dG unfold < 3 kcal/mol.

Query :: Hi, just wondering whether SAGGSAGGSAKKIEIEPMPNGWTVRIKGNDGKKREIPIPNPNQSISDIAKRAEDNGIDDVEISAGGSAGGSA [r18_83_TrROS] shows folding stability dG unfold of 3 kcal/mol or higher.
Result :: criterion not met

Query :: Hi, just wondering whether SAGGKPKEITLVVKVGETVEFPEGAEVTYDKETGTVTIKLPDGRTIRVEVTYNPDTDYLVVKITVEPSAGGS [r16_122_TrROS_Hall] shows folding stability dG unfold of 3 kcal/mol or higher.
Result :: criterion not met

Query :: Hi, just wondering whether SAGGSAGGSAMKTIPVKTKEEAEKLAEELKASGYGEVKKTKSGNIIVKAPDGIDVKIVVPEKSAGGSAGGSA [r18_126_JUSTAS] shows folding stability dG unfold of 3 kcal/mol or higher.
Result :: criterion not met

Query :: Hi, just wondering whether SAGGSAGGSMSPEEAKKLAEELAKKLGLEKVEIVEIKVEVDEETNEIKVTIYIRGKDGKWYKLSAGGSAGGS [r12_508_TrROS_Hall] shows folding stability dG unfold of 3 kcal/mol or higher.
Result :: criterion met

Query :: Hi, just wondering whether SAGWKIKLENIEFFPNGRIRVMFEIEDPNGRPWRVQAQFDPDNPGKIKIKVENPDNGQEQEITFTIKPPSAG [r5_345_TrROS] shows folding stability dG unfold of 3 kcal/mol or higher.
Result :: criterion met

Query :: Hi, just wondering whether SAGGSAGGSWRTITYEFKLPKPGQTAEDIAKEIMQLFPGVKDIEIKYYPEEGYIKVDIRFRPNSAGGSAGGS [r20_31_TrROS] shows folding stability dG unfold of 3 kcal/mol or higher.
Result :: criterion met

Query :: Hi, just wondering whether SAGGSAGGSAGIKIEWEPNPNGSWRMKIEIPNPNGNPKKIEVWANPNGKIREDEAKEILNSAGGSAGGSAGG [r11_759_TrROS] shows folding stability dG unfold of 3 kcal/mol or higher.
Result :: criterion not met

Query :: Hi, just wondering whether SAGGSAGGSMWIVRIEYENPDNGKTYTIPIFVPPEDAEEIAKEIAEQLPGIKDIKVEIYPLNDSAGGSAGGS [r12_757_TrROS] shows folding stability dG unfold of 3 kcal/mol or higher.
Result :: criterion not met
